Hey, just so you know, these numbers are from patent US20140120095A1.

- System: T1, mouse DLL4 expressed on CHO cells (mouse, UniProt Q9JI71 27-686)
- T1 construct: whole, on cells; also called mDLL4; CHO-mDLL4
- T1 sequence (Q9JI71 27-686): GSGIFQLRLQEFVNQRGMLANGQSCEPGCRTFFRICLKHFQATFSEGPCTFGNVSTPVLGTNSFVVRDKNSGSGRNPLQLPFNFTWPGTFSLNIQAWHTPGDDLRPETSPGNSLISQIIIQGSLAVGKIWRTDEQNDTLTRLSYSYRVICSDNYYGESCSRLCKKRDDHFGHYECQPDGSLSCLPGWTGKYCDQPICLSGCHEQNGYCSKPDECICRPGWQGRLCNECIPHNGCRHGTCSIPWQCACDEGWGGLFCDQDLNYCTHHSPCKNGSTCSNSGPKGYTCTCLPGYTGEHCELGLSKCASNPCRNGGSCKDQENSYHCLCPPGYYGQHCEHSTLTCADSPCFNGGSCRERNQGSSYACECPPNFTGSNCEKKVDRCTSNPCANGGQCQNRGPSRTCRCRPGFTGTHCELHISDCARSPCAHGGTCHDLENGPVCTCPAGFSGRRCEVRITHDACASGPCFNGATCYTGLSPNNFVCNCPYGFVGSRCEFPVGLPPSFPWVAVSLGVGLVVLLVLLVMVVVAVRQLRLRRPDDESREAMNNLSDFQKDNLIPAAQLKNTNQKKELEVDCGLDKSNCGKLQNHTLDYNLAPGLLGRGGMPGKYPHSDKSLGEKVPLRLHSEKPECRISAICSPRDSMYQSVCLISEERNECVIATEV
- Assay: FACS; summary table, column taken as mDLL4
pEC50: −log10 of the molar value.
Measured pEC50 of individual entries

{"Binder": "DLLBII133G05 (VHH, not shown: small tags and cut ends) VHH: EVQLVESGGGLVQPGGSLRLSCAASGFTFGSYDMSWVRRSPGKGPEWVSAINSGGGSTYYTDYVKGRFTISRDNAKNTLYLQMNSLKPEDTAVYYCAADRYIWARQGEYWGAYAYDYWGQGTQVTVSS", "pEC50": 8.55}
{"Binder": "DLLBII015 (VHH, not shown: small tags and cut ends) VHH: EVQLVESGGGLVQPGGSLRLSCAASGFTIGSYDMSWVRRSPGKGPEWVSAINSGGGSTYYADYVKGRFTISRDNAKNTLYLQMNSLKPEDTAVYYCAADRYIWARQGEYWGAYAYDYWGQGTQVTVSS", "pEC50": 8.15}
{"Binder": "DLLBII129B05 (VHH, not shown: small tags and cut ends) VHH: EVQLVESGGGLVQAGGSLRLSCAASGRTFSSYAMAWYRQAPGKEREYVAAIRWSGGTAYYADSVQGRFTISRDNAKNTVYLQMNSLKPEDTAVYYCANRAPDTRLAPYEYDHWGQGTQVTVSS", "pEC50": 8.41}
